System: 873145-292-R-J1-PDC complex spheroid viability
Experiment: Anticancer human tumor 873145-292-R-J1-PDC patient-derived renal clear cell carcinoma cell line growth inhibition [POLQ]
Details: second compound 10 µM; first compound 1 µM; stronger effect = lower value
Measured quantity: viability, T/C (%)
Numbers only, in %.

Solved cases (2 shown):
| Compound | Tgt | Recorded number |
| --- | --- | --- |
| CCCS(=O)(=O)Nc1ccc(F)c(C(=O)c2c[nH]c3ncc(-c4ccc(Cl)cc4)cc23)c1F + Cc1cccc(N(C)C(=O)C2C(O)CCN2c2nc(C)cc(C(F)(F)F)c2C#N)c1 | 873145-292-R-J1-PDC complex spheroid viability | 109 |
| COc1cc2cc(C(=O)CCC(=O)O)sc2cc1OC + Nc1ccc(C#CCN(C(=O)Cc2ncc(C(F)(F)F)cc2C(F)(F)F)c2ccc(F)cc2)nn1 | 873145-292-R-J1-PDC complex spheroid viability | 110 |

Then there is this compound:
# query: viability, T/C of entry COc1cc(C2c3cc4c(cc3C(OC3OC5COC(C)OC5C(O)C3O)C3COC(=O)C23)OCO4)cc(OC)c1O (stereo not drawn) + Nc1ccc(C#CCN(C(=O)Cc2ncc(C(F)(F)F)cc2C(F)(F)F)c2ccc(F)cc2)nn1
97.1

* * *

Provide the recorded IC50 for the entries that follow.
System: 873145-292-R-J1-PDC complex spheroid viability
Assay: Anticancer human tumor 873145-292-R-J1-PDC cell line growth inhibition [POLQ];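 further: spheroids exposed to compounds for 7 days before viability readout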
Conditions: curve of first compound; second compound 3.16 µM

| Compound | Result |
| --- | --- |
| CC[C@@]1(O)C(=O)OCc2c1cc1n(c2=O)Cc2cc3c(CN(C)C)c(O)ccc3nc2-1 + Nc1ccc(C#CCN(C(=O)Cc2ncc(C(F)(F)F)cc2C(F)(F)F)c2ccc(F)cc2)nn1 | > 0.1 µM |
| CC1COCCN1c1cc(C2(S(C)(=N)=O)CC2)nc(-c2ccnc3[nH]ccc23)n1 (centres undefined) + COC1C(OC(N)=O)C(O)C(Oc2ccc3c(O)c(NC(=O)c4ccc(O)c(CC=C(C)C)c4)c(=O)oc3c2C)OC1(C)C | > 10 µM |
| CCc1cc2c(N3CCc4c(cc(Cn5ccnc5)cc4-c4cn(C)nc4C(F)(F)F)C3=O)ccnc2c(OC)n1 + COC1C(OC(N)=O)C(O)C(Oc2ccc3c(O)c(NC(=O)c4ccc(O)c(CC=C(C)C)c4)c(=O)oc3c2C)OC1(C)C | > 10 µM |
| C=CC(=O)N1CCN(c2nc(=O)n(-c3c(C)ccnc3C(C)C)c3nc(-c4c(O)cccc4F)c(F)cc23)C(C)C1 (centres undefined) + Cc1cccc(N(C)C(=O)C2C(O)CCN2c2nc(C)cc(C(F)(F)F)c2C#N)c1 | > 10 µM |
| COc1cc(C2c3cc4c(cc3C(OC3OC5COC(C)OC5C(O)C3O)C3COC(=O)C23)OCO4)cc(OC)c1O (centres undefined) + COC1C(OC(N)=O)C(O)C(Oc2ccc3c(O)c(NC(=O)c4ccc(O)c(CC=C(C)C)c4)c(=O)oc3c2C)OC1(C)C | > 10 µM |

Dear reader, for each entry below, please note its IC50.
1. C=CCn1c(=O)c2cnc(Nc3ccc(N4CCN(C)CC4)cc3)nc2n1-c1cccc(C(C)(C)O)n1 + Cc1cccc(N(C)C(=O)C2C(O)CCN2c2nc(C)cc(C(F)(F)F)c2C#N)c1
2. Cn1ncnc1[C@H]1c2n[nH]c(=O)c3cc(F)cc(c23)N[C@@H]1c1ccc(F)cc1 + COC1C(OC(N)=O)C(O)C(Oc2ccc3c(O)c(NC(=O)c4ccc(O)c(CC=C(C)C)c4)c(=O)oc3c2C)OC1(C)C
3. O=C(c1cc(Cc2n[nH]c(=O)c3ccccc23)ccc1F)N1CCN(C(=O)C2CC2)CC1 + Cc1cccc(N(C)C(=O)C2C(O)CCN2c2nc(C)cc(C(F)(F)F)c2C#N)c1
4. CC1COCCN1c1cc(-c2ccnn2C)c2ccnc(-c3ccn[nH]3)c2n1 (centres undefined) + COC1C(OC(N)=O)C(O)C(Oc2ccc3c(O)c(NC(=O)c4ccc(O)c(CC=C(C)C)c4)c(=O)oc3c2C)OC1(C)C
5. C#Cc1c(F)ccc2cc(O)cc(-c3ncc4c(N5CC6CCC(C5)N6)nc(OCC56CCCN5CC(F)C6)nc4c3F)c12 (centres undefined) + COC1C(OC(N)=O)C(O)C(Oc2ccc3c(O)c(NC(=O)c4ccc(O)c(CC=C(C)C)c4)c(=O)oc3c2C)OC1(C)C
6. CC(C)n1c(=O)n(C)c2cnc3cc(F)c(-c4ccc(OCCCN5CCCCC5)nc4)cc3c21 + Nc1ccc(C#CCN(C(=O)Cc2ncc(C(F)(F)F)cc2C(F)(F)F)c2ccc(F)cc2)nn1
7. CNCc1ccc(-c2[nH]c3cc(F)cc4c3c2CCNC4=O)cc1 + Cc1cccc(N(C)C(=O)C2C(O)CCN2c2nc(C)cc(C(F)(F)F)c2C#N)c1

> 1 µM
> 0.1 µM
> 10 µM
0.952 µM
> 10 µM
> 10 µM
> 10 µM

Record IC50 for all entries; do not skip any.
1. COc1ccc([C@@H](O)c2cc(-c3ncnc4cc(N5CCOCC5)ccc34)c(F)cc2Cl)nn1 + Nc1ccc(C#CCN(C(=O)Cc2ncc(C(F)(F)F)cc2C(F)(F)F)c2ccc(F)cc2)nn1
2. CCc1cc2c(N3CCc4c(cc(Cn5ccnc5)cc4-c4cn(C)nc4C(F)(F)F)C3=O)ccnc2c(OC)n1 + Nc1ccc(C#CCN(C(=O)Cc2ncc(C(F)(F)F)cc2C(F)(F)F)c2ccc(F)cc2)nn1
3. CCc1cc2c(N3CCc4c(cc(Cn5ccnc5)cc4-c4cn(C)nc4C(F)(F)F)C3=O)cc(C)nc2c(OC)n1 + Cc1cccc(N(C)C(=O)C2C(O)CCN2c2nc(C)cc(C(F)(F)F)c2C#N)c1
4. Nc1ccn(C2OC(CO)C(O)C2(F)F)c(=O)n1 (centres undefined) + Cc1cccc(N(C)C(=O)C2C(O)CCN2c2nc(C)cc(C(F)(F)F)c2C#N)c1
5. COc1cc(C2c3cc4c(cc3C(OC3OC5COC(C)OC5C(O)C3O)C3COC(=O)C23)OCO4)cc(OC)c1O (centres undefined) + Nc1ccc(C#CCN(C(=O)Cc2ncc(C(F)(F)F)cc2C(F)(F)F)c2ccc(F)cc2)nn1
6. Nc1ccn(C2OC(CO)C(O)C2(F)F)c(=O)n1 (centres undefined) + COC1C(OC(N)=O)C(O)C(Oc2ccc3c(O)c(NC(=O)c4ccc(O)c(CC=C(C)C)c4)c(=O)oc3c2C)OC1(C)C

["5.93 µM", "> 10 µM", "> 10 µM", "5.41 µM", "> 10 µM", "0.36 µM"]

Reported IC50 for 873145-292-R-J1-PDC complex spheroid viability, given CC(=O)O[C@H]1C(=O)[C@@]2(C)[C@H]([C@H](OC(=O)c3ccccc3)[C@]3(O)C[C@H](OC(=O)[C@H](O)[C@@H](NC(=O)c4ccccc4)c4ccccc4)C(C)=C1C3(C)C)[C@]1(OC(C)=O)CO[C@@H]1C[C@@H]2O + Cc1cccc(N(C)C(=O)C2C(O)CCN2c2nc(C)cc(C(F)(F)F)c2C#N)c1 ?
> 3 µM

* * *

Hi there, I'd appreciate the recorded pIC50 for every entry that follows.
System: 873145-292-R-J1-PDC complex spheroid viability
Assay: Anticancer human tumor 873145-292-R-J1-PDC cell line growth inhibition [POLQ];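 further: spheroids exposed to compounds for 7 days before viability readout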
Conditions: curve of first compound; second compound 3.16 µM
pIC50: −log10 of the molar value.

Examples from the recorded data:
| Compound | Tgt | pIC50 |
| --- | --- | --- |
| Cn1ncnc1[C@H]1c2n[nH]c(=O)c3cc(F)cc(c23)N[C@@H]1c1ccc(F)cc1 + Nc1ccc(C#CCN(C(=O)Cc2ncc(C(F)(F)F)cc2C(F)(F)F)c2ccc(F)cc2)nn1 | 873145-292-R-J1-PDC complex spheroid viability | < 7.00 |
| CC1COCCN1c1cc(C2(O)CC3CCC(C2)O3)c2cnn(-c3ccn[nH]3)c2n1 (stereo not drawn) + Cc1cccc(N(C)C(=O)C2C(O)CCN2c2nc(C)cc(C(F)(F)F)c2C#N)c1 | 873145-292-R-J1-PDC complex spheroid viability | 6.42 |

Next compound, please.
Given O=c1[nH]cc(F)c(=O)[nH]1 + Cc1cccc(N(C)C(=O)C2C(O)CCN2c2nc(C)cc(C(F)(F)F)c2C#N)c1 , state its recorded pIC50.
< 5.00

* * *

What viability, T/C was measured for each of the following?
Tested on: 873145-292-R-J1-PDC complex spheroid viability
Assay: Anticancer human tumor 873145-292-R-J1-PDC cell line growth inhibition [POLQ];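 further: spheroids exposed to compounds for 7 days before viability readout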;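 on viability, T/C: luminescence signal used as surrogate for viable cell content; 100% = DMSO vehicle control viability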
Settings: second compound 0.316 µM; first compound 0.316 µM; stronger effect = lower value
Numbers only, in %.

Please review the following examples before continuing.
| Compound | Measured quantity | Recorded number |
| --- | --- | --- |
| CC1COCCN1c1cc(-c2ccnn2C)c2ccnc(-c3ccn[nH]3)c2n1 (stereo unspecified) + COC1C(OC(N)=O)C(O)C(Oc2ccc3c(O)c(NC(=O)c4ccc(O)c(CC=C(C)C)c4)c(=O)oc3c2C)OC1(C)C | viability, T/C | 63.7 |
| CC1COCCN1c1cc(C2(S(C)(=N)=O)CC2)nc(-c2ccnc3[nH]ccc23)n1 (stereo unspecified) + Cc1cccc(N(C)C(=O)C2C(O)CCN2c2nc(C)cc(C(F)(F)F)c2C#N)c1 | viability, T/C | 98.8 |
| COc1cccc(OCCCN)c1-c1cc(Nc2cnc(C#N)cn2)n[nH]1 + COC1C(OC(N)=O)C(O)C(Oc2ccc3c(O)c(NC(=O)c4ccc(O)c(CC=C(C)C)c4)c(=O)oc3c2C)OC1(C)C | viability, T/C | 71.1 |
| O=C(Nc1ccc(O)c(NS(=O)(=O)c2ccc(F)cc2)c1)c1ccc(-c2ccccc2)cc1 + COC1C(OC(N)=O)C(O)C(Oc2ccc3c(O)c(NC(=O)c4ccc(O)c(CC=C(C)C)c4)c(=O)oc3c2C)OC1(C)C | viability, T/C | 96.2 |
| CC1COCCN1c1cc(C2(O)CC3CCC(C2)O3)c2cnn(-c3ccn[nH]3)c2n1 (stereo unspecified) + Nc1ccc(C#CCN(C(=O)Cc2ncc(C(F)(F)F)cc2C(F)(F)F)c2ccc(F)cc2)nn1 | viability, T/C | 54.9 |
| O=C(c1cc(Cc2n[nH]c(=O)c3ccccc23)ccc1F)N1CCN(C(=O)C2CC2)CC1 + Cc1cccc(N(C)C(=O)C2C(O)CCN2c2nc(C)cc(C(F)(F)F)c2C#N)c1 | viability, T/C | 103 |
| CCc1cc2c(N3CCc4c(cc(Cn5ccnc5)cc4-c4cn(C)nc4C(F)(F)F)C3=O)cc(C)nc2c(OC)n1 + Cc1cccc(N(C)C(=O)C2C(O)CCN2c2nc(C)cc(C(F)(F)F)c2C#N)c1 | viability, T/C | 76.1 |
| COc1cccc(OCCCN)c1-c1cc(Nc2cnc(C#N)cn2)n[nH]1 + Cc1cccc(N(C)C(=O)C2C(O)CCN2c2nc(C)cc(C(F)(F)F)c2C#N)c1 | viability, T/C | 75.6 |

# map each compound to its viability, T/C
1. CCc1cc2c(N3CCc4c(cc(Cn5ccnc5)cc4-c4cn(C)nc4C(F)(F)F)C3=O)ccnc2c(OC)n1 + Nc1ccc(C#CCN(C(=O)Cc2ncc(C(F)(F)F)cc2C(F)(F)F)c2ccc(F)cc2)nn1
2. CC1COCCN1c1cc(C2(S(C)(=N)=O)CC2)nc(-c2ccnc3[nH]ccc23)n1 (stereo unspecified) + Nc1ccc(C#CCN(C(=O)Cc2ncc(C(F)(F)F)cc2C(F)(F)F)c2ccc(F)cc2)nn1
3. COc1cc2cc(C(=O)CCC(=O)O)sc2cc1OC + Nc1ccc(C#CCN(C(=O)Cc2ncc(C(F)(F)F)cc2C(F)(F)F)c2ccc(F)cc2)nn1

1. 82.3
2. 84.7
3. 96.8

These data points were gathered from PubChem BioAssay AID1963834.
